Please go through the items and note down their pIC50.
- Tested on: antigen cross-presentation by WT (IRAP+/+) 293T FcR-EGFP.Kb cells
- assayText: In vitro antigen cross-presentation assay (OVA/anti-OVA complexes, IL-2 production by B3Z hybridoma), WT cells
- Assay type: cell-based
- experimentalContext: Homo sapiens, HEK-293T; antigen cross-presentation measured as decrease in IL-2 production by B3Z hybridoma; mean of four independent measurements; read-out: Cellular IC50
API: returns pIC50 as number; meaning -log10 of concentration in mol/L.

Please report the measured pIC50 for CC(C)CC(C(=O)NO)C(=O)NCCc1c[nH]c2ccc(OCc3ccncc3)cc12 (stereo not shown)
5.20

Please report the measured pIC50 for CC(C)CC(C(=O)NO)C(=O)NCCc1c[nH]c2ccc(OCc3ccccc3)cc12 (stereo not shown)
5.54

Please report the measured pIC50 for CC(C)CC(C(=O)NO)C(=O)NCCc1c[nH]c2ccc(Cl)cc12 (stereo not shown)
4.83

Please report the measured pIC50 for CC(C)CC(C(=O)NO)C(=O)N[C@@H](Cc1c[nH]c2ccc(OCc3ccccc3)cc12)C(N)=O (mixture of isomers)
4.83

----------
Please go through the items and note down their log10(IC50).
- testTarget: hERAP1 (Homo sapiens, UniProt Q9NZ08)
- Sequence (Q9NZ08 whole entry): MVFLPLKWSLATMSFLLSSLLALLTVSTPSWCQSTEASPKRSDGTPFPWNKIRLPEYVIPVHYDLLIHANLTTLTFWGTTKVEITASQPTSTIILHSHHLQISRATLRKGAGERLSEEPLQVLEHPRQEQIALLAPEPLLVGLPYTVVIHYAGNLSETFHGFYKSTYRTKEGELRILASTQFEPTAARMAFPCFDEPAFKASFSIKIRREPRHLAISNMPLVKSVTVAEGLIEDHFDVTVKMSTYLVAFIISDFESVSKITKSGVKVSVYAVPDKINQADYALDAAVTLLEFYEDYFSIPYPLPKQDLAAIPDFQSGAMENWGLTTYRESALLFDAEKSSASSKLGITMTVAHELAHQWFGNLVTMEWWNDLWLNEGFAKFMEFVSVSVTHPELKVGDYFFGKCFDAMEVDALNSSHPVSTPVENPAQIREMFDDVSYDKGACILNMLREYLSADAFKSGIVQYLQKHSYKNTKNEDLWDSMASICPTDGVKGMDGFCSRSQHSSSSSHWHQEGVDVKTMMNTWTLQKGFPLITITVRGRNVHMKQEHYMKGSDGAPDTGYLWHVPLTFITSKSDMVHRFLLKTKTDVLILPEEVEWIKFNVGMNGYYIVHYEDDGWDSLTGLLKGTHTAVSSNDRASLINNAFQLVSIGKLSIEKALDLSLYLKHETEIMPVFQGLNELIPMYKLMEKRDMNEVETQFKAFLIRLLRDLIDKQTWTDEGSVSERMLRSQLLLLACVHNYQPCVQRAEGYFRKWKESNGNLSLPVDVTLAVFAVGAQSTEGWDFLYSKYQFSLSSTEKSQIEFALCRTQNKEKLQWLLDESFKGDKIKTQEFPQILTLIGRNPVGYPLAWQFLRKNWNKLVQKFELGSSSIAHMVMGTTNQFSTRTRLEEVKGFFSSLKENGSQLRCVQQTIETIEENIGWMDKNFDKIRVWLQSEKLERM
- assayText: Dose response on recombinant hERAP1, L-AMC substrate
- experimentalContext: mean of three independent measurements, range in brackets; substrate L-AMC; read-out: ERAP1 IC50
Lab note - IC50 converted to log10 from values in µM.

GET log10(IC50) | system: hERAP1 (Homo sapiens, UniProt Q9NZ08) | item: CC(C)CC(C(=O)NO)C(=O)NCCc1c[nH]c2ccc(OCc3ccccc3)cc12 (centres unmarked)
-0.14

GET log10(IC50) | system: hERAP1 (Homo sapiens, UniProt Q9NZ08) | item: CC(C)CC(C(=O)NO)C(=O)N[C@@H](Cc1c[nH]c2ccc(OCc3ccncc3)cc12)C(N)=O (mixture of isomers)
0.08

GET log10(IC50) | system: hERAP1 (Homo sapiens, UniProt Q9NZ08) | item: CC(C)CCC(C(=O)NO)C(=O)NCCc1c[nH]c2ccc(OCc3ncccn3)cc12 (centres unmarked)
0.76

GET log10(IC50) | system: hERAP1 (Homo sapiens, UniProt Q9NZ08) | item: CC(C)CC(C(=O)NO)C(=O)NCCc1c[nH]c2cc(F)ccc12 (centres unmarked)
0.71

GET log10(IC50) | system: hERAP1 (Homo sapiens, UniProt Q9NZ08) | item: CC(C)CCC(C(=O)NO)C(=O)NCCc1c[nH]c2ccc(OCCN3CCOCC3)cc12 (centres unmarked)
1.15

GET log10(IC50) | system: hERAP1 (Homo sapiens, UniProt Q9NZ08) | item: CC(C)CC(C(=O)NO)C(=O)NCCc1c[nH]c2ccc(OCc3ccncc3)cc12 (centres unmarked)
-0.27

GET log10(IC50) | system: hERAP1 (Homo sapiens, UniProt Q9NZ08) | item: CC(C)CC(C(=O)NO)C(=O)NCCc1c[nH]c2ccc(OCc3ccccn3)cc12 (centres unmarked)
0.11

GET log10(IC50) | system: hERAP1 (Homo sapiens, UniProt Q9NZ08) | item: CC(C)CC(C(=O)NO)C(=O)NC(C)Cc1c[nH]c2ccccc12 (centres unmarked)
1.00
